Tested on: Vero E6 infected with SARS-CoV-2
Assay: inhibition of SARS-CoV-2 cytopathic effect; higher = more antiviral protection, active = above 15
Conditions: 100 nM; 48 h
Measured metric: inhibition of SARS-CoV-2 cytopathic effect (%)
# value in %; strip the unit string

## Input // inhibition of SARS-CoV-2 cytopathic effect lookup, key: CCc1c2c(nc3ccc(OC(=O)N4CCC(N5CCCCC5)CC4)cc13)-c1cc3c(c(=O)n1C2)COC(=O)[C@]3(O)CC
## Output 1.85

## Input Now consider Cc1nc(C)c(C)nc1C and answer again.
## Output 2.51

## Input Now consider N#Cc1ccc(-c2csc(NN=C3CCCC3)n2)cc1 and answer again.
## Output 1.18

## Input Now consider CC(=O)NNC(=O)N1Cc2ccccc2Oc2ccc(Cl)cc21 and answer again.
## Output -0.93

## Input Now consider O=Nc1c(-c2c(O)[nH]c3ccccc23)[nH]c2ccccc12 and answer again.
## Output 1.06

## Input Now consider C[C@@H]1C[C@H]2[C@@H]3C[C@H](F)C4=CC(=O)C=C[C@]4(C)[C@@]3(F)[C@@H](O)C[C@]2(C)[C@@]1(O)C(=O)CO and answer again.
## Output 1.45

## Input Now consider CCc1oc2ccccc2c1C(=O)c1cc(Br)c(O)c(Br)c1 and answer again.
## Output -2.5

====

Test system: Vero E6 infected with SARS-CoV-2
Experiment: SARS-CoV-2 infection rate relative to infected DMSO; higher = more infection, active = 60 or less
Conditions: 24 h
Provide the recorded SARS-CoV-2 infection rate for the entries that follow.
# value in %; strip the unit string

## Input // SARS-CoV-2 infection rate lookup, key: Cc1cc(Nc2ncc(Cl)c(Nc3ccccc3S(=O)(=O)C(C)C)n2)c(OC(C)C)cc1C1CCNCC1 [ceritinib] (0.833333 µM)
## Output 104

## Input Now consider CC(C)(C)C(=O)C(Oc1ccc(Cl)cc1)n1ccnc1 (stereo not given) [climbazole] (10 µM) and answer again.
## Output 91.5

## Input Now consider Cc1cc(I)ccc1Nc1c(C(=O)NOCC2CC2)cc(F)c(F)c1F (10 µM) and answer again.
## Output 113

## Input Now consider CC[N+](CC)(CC)CCOc1ccc(/C=C/c2ccccc2)cc1 (10 µM) and answer again.
## Output 105

## Input Now consider CCS(=O)(=O)c1ccc2oc(-c3ccc4ccccc4c3)nc2c1 [ezutromid] (10 µM) and answer again.
## Output 98.5

## Input Now consider CCC(=O)NC[C@@H]1C[C@H]1c1cccc2c1CCO2 [tasimelteon] (10 µM) and answer again.
## Output 98.5

## Input Now consider O=C1c2c(O)cccc2C([C@@H]2O[C@H](CO)[C@@H](O)[C@H](O)[C@H]2O)c2cc(CO)cc(O)c21 (stereo not given in full) [aloin] (10 µM) and answer again.
## Output 116

## Input Now consider Nc1ncc(Cc2ccc(Br)cc2)s1 (10 µM) and answer again.
## Output 102

## Input Now consider COc1ccccc1N1CCN(CCN(C(=O)C2CCCCC2)c2ccccn2)CC1 (10 µM) and answer again.
## Output 118

## Input Now consider Cc1oc(=O)oc1COC(=O)C1=C([C@H]2CCCO2)S[C@@H]2[C@@H]([C@@H](C)O)C(=O)N12 [faropenem-medoxomil] (10 µM) and answer again.
## Output 114

====

System: Vero E6 infected with SARS-CoV-2
Experiment: inhibition of SARS-CoV-2 cytopathic effect; higher = more antiviral protection, active = above 15
Conditions: 833.33 nM; 48 h
Provide the recorded inhibition of SARS-CoV-2 cytopathic effect for the entries that follow.
# value in %; strip the unit string

## Input // lookup inhibition of SARS-CoV-2 cytopathic effect | system=Vero E6 infected with SARS-CoV-2 | key= CCCCCCCC/C=C\CCCCCCCC(N)=O [oleamide]
## Output 0.76

## Input Now consider C[C@]12CC[C@H](O)C[C@H]1CC[C@@H]1[C@@H]2CC[C@]2(C)[C@@H](C3=CC(=O)OC3)CC[C@]12O and answer again.
## Output -13.3

## Input Now consider Cc1ccc(S(=O)(=O)NC(=O)NN2CC3CCCC3C2)cc1 (centres undefined) [gliclazide] and answer again.
## Output 2.55

## Input Now consider CN1CCN(c2ccc(C(=O)Nc3n[nH]c4ccc(Cc5cc(F)cc(F)c5)cc34)c(NC3CCOCC3)c2)CC1 and answer again.
## Output -2.36

====

Provide the recorded inhibition of SARS-CoV-2 cytopathic effect for the entries that follow.
Tested on: Vero E6 infected with SARS-CoV-2
Test: inhibition of SARS-CoV-2 cytopathic effect; higher = more antiviral protection, active = above 15
Settings: 833.33 nM; 48 h
# value in %; strip the unit string

## Input // inhibition of SARS-CoV-2 cytopathic effect lookup, key: OCc1c[nH]c2ccccc12
## Output -0.69

## Input Now consider CC(C)(Cc1ccc2ccccc2c1)NC[C@@H](O)COc1cccc(Cl)c1C#N and answer again.
## Output 2.49

## Input Now consider NCCNC(=O)c1ccc(Cl)cn1 [lazabemide] and answer again.
## Output -0.24

## Input Now consider COc1ccc(C(=O)N2CCCc3cc(C4=NNC(=O)SC4C)ccc32)cc1OC (configuration not stated) and answer again.
## Output 0.74

## Input Now consider Cc1ncc(CO)c(/C=N/NC(=O)c2ccncc2)c1O [pyridoxal-isonicotinoyl-hydrazone] and answer again.
## Output 0.28

## Input Now consider Cc1c(C)c(NCC(=O)N(C)C2CCN(Cc3ccc(C(N)=O)cc3)CC2)c(C)c(C)c1N and answer again.
## Output -0.15

## Input Now consider CN1CCN(c2ncc(-c3cc(Cl)cc(Cl)c3Cl)c(N)n2)CC1 and answer again.
## Output -3.24

## Input Now consider COc1ccc(-c2ccc3ncc4c(c3c2)n(-c2ccc(N3CCNCC3)c(C(F)(F)F)c2)c(=O)n4C)cn1 and answer again.
## Output -8.37

## Input Now consider CCCCCOC(=O)Nc1nc(=O)n([C@@H]2O[C@H](C)[C@@H](O)[C@H]2O)cc1F and answer again.
## Output -0.59

## Input Now consider CCN1CCCC1CNC(=O)c1cc(S(=O)(=O)CC)c(N)cc1OC (configuration not stated) [amisulpride] and answer again.
## Output -2.32

## Input Now consider O=C(O)c1c2ccccc2cc2ccccc12 and answer again.
## Output 1.03

## Input Now consider CC1(C)S[C@@H]2[C@H](NC(=O)[C@H](C(=O)O)c3ccsc3)C(=O)N2[C@H]1C(=O)O and answer again.
## Output 0.92

## Input Now consider COc1ccc(/C=C\c2cc(OC)c(OC)c(OC)c2)cc1O and answer again.
## Output -2.08

## Input Now consider N=C1NC(=O)/C(=C/c2ccc(O)cc2)S1 and answer again.
## Output -3.88

## Input Now consider COc1cc(NC(=O)c2ccc(-c3ccc(Cl)cc3)o2)cc(OC)c1 and answer again.
## Output 0.19

## Input Now consider O=C1CC[C@@]2(O)[C@H]3Cc4ccc(O)c5c4[C@@]2(CCN3CC2CC2)[C@H]1O5 and answer again.
## Output -1.24

## Input Now consider NCCCCCC(O)(P(=O)(O)O)P(=O)(O)O and answer again.
## Output 2.29

## Input Now consider Nc1ccccc1NC(=O)c1ccc(CNc2nccc(-c3cccnc3)n2)cc1 and answer again.
## Output 1.7

## Input Now consider O=C(CCCN1CCC(O)(c2ccc(Br)cc2)CC1)c1ccc(F)cc1 and answer again.
## Output -0.17

## Input Now consider Cc1ccccc1/N=N/c1ccc(/N=N/c2c(O)ccc3ccccc23)c(C)c1 and answer again.
## Output -0.99

## Input Now consider COc1cc(C(=O)N(CC[C@H]2CCCN2C)C/C(C)=C/c2ccccc2F)cc(OC)c1OC (racemic) and answer again.
## Output -0.01

## Input Now consider CN(C)[C@@H]1C(O)=C(C(N)=O)C(=O)[C@@]2(O)C(O)=C3C(=O)c4c(O)ccc(Cl)c4[C@@](C)(O)[C@H]3C[C@@H]12 and answer again.
## Output 1.21

## Input Now consider COc1cc(Oc2ccnc3cc(OC)c(OC)cc23)ccc1NC(=O)NC(C)c1nccs1 (configuration not stated) and answer again.
## Output 0.48

## Input Now consider O=C(O)Cc1cccc2c(=O)cc(-c3ccccc3)oc12 and answer again.
## Output 1.5

## Input Now consider N#Cc1ccncn1 and answer again.
## Output 0.49

## Input Now consider CC/C=C(\C(=O)N[C@@H]1C(=O)N2C(C(=O)OCOC(=O)C(C)(C)C)=C(COC(N)=O)CS[C@H]12)c1csc(N)n1 and answer again.
## Output 1.69

## Input Now consider Cc1csc(-c2nnc(Nc3ccc(Oc4ncccc4-c4ccnc(N)n4)cc3)c3ccccc23)c1 and answer again.
## Output -4.07
